Tested on: SW-620 colon
ASSAY OVERVIEW: NCI tumour cell line growth inhibition, 48 h
Exercise: state measured TGI for each of the molecules provided.

Req: Request the reported TGI associated with COc1ccc(-c2cnc(-c3ccc(OC)cc3)n2-c2cc(OC)c(OC)c(OC)c2)cc1
Resp: > 100 µM

Req: Request the reported TGI associated with CCOc1ccc(-c2nc3ccc(-c4nc5ccc(N6CCN(C)CC6)cc5[nH]4)cc3[nH]2)cc1
Resp: 1.17 µM

Req: Request the reported TGI associated with COc1cc2c3c(n(CCCN=[N+]=[N-])c(=O)c2cc1OC)-c1ccc([N+](=O)[O-])cc1C3=O
Resp: > 100 µM

Req: Request the reported TGI associated with C=CCCn1nc(-c2ccccc2)oc1=O
Resp: > 100 µM

Req: Request the reported TGI associated with COC(=O)[C@H](Cc1cn(C)cn1)NC(=O)[C@H](CC(C)C)NC(=O)Nc1cc(C(F)(F)F)cc(C(F)(F)F)c1
Resp: > 10 µM

Req: Request the reported TGI associated with CC(=O)NC(CCCNC(=O)N(C)N=O)C(=O)NCc1ccccc1 (centres undefined)
Resp: > 100 µM

Req: Request the reported TGI associated with C/C(O)=C(/C=N/C(=S)Nc1ccccc1)C(=O)Nc1ccccc1C
Resp: > 100 µM

Req: Request the reported TGI associated with CC(=O)NC1=NC(=O)/C(=C/c2ccccc2Cl)N1C
Resp: > 100 µM

Req: Request the reported TGI associated with Cc1cc(C)c2c(=O)n(CC(O)CN(Cc3ccccc3)CC(O)Cn3sc4nc(C)cc(C)c4c3=O)sc2n1 (centres undefined)
Resp: > 100 µM

----------
Exercise: state measured TGI for each of the compounds provided.
Test system: COLO 205 colon
ASSAY OVERVIEW: NCI tumour cell line growth inhibition, 48 h
Numbers only here, please. The scale is µM.

Req: Request the reported TGI associated with c1ccc(/C(=N\Nc2nc3ccccc3[nH]2)c2ccccn2)cc1
Resp: 3.31

Req: Request the reported TGI associated with COc1ccc(Sc2[nH]c(C=O)c3ccccc23)cc1
Resp: 6

Req: Request the reported TGI associated with COc1cc(C2c3cc4c(cc3OC(NNC(N)=S)C2C)OCO4)cc(OC)c1OC (stereo unspecified)
Resp: 1.37

Req: Request the reported TGI associated with COc1cc(/C=N/NC(=O)c2c(Cl)c(Cl)c(Cl)c(Cl)c2-c2nc3ccc(C(=O)c4ccccc4)cc3[nH]2)ccc1O
Resp: 58.1

Req: Request the reported TGI associated with CN(C)CC1(C)CC/C(=C\c2ccc(Cl)cc2)C1=O (stereo unspecified)
Resp: 31.7

Req: Request the reported TGI associated with O=C1c2cc3c(cc2CC12Cc1ccccc1C2)CCC3
Resp: 48.5

Req: Request the reported TGI associated with Cn1cnc([N+](=O)[O-])c1Sc1n[nH]c(-c2ccc(Cl)cc2)n1
Resp: 30.9

Req: Request the reported TGI associated with C[C@]12CC[C@H]3[C@@H](CC=C4C[C@@H](O)CC[C@@]43C)[C@@H]1C/C(=C\c1ccncc1)[C@@H]2O
Resp: 24.9

Req: Request the reported TGI associated with Oc1ccc(N=Nc2ccc(Br)cc2)c(O)c1
Resp: 48.9

Req: Request the reported TGI associated with OCC1OC(N2C=C(c3nc4ccccc4s3)C3C=CC=CC32)C(O)C(O)C1O (stereo unspecified)
Resp: 20.9

Req: Request the reported TGI associated with COC(=O)c1c(O)ccc2c1c1c(n2CCc2ccc(OC)c(OC)c2)C(=O)c2ccccc2C1=O
Resp: 11.1

----------
Test system: HOP-62 NSCLC
ASSAY OVERVIEW: NCI tumour cell line growth inhibition, 48 h
EXPERIMENTAL READOUT: GI50

Req: Report GI50 for CCCCCCCCCCCCCCCCn1cc[n+](C)c1 tested on HOP-62 NSCLC.
Resp: 0.443 µM

Req: Report GI50 for CCCN(CCC)c1ccc(/C=N/NC(=O)c2cccnc2)c(C)c1 tested on HOP-62 NSCLC.
Resp: 18.2 µM

Req: Report GI50 for O=C1CN=C(c2ccc[nH]2)c2cc(Cl)ccc2N1 tested on HOP-62 NSCLC.
Resp: > 100 µM

Req: Report GI50 for COC(=O)CCc1n(Cc2ccc3ccccc3c2)c2ccccc2[n+]1Cc1ccc2ccccc2c1 tested on HOP-62 NSCLC.
Resp: 1.66 µM

Req: Report GI50 for CCOC(=O)c1c(NN2CCN(CC(F)(F)F)CC2)oc(/C=C2\C=Nc3ncccc32)c1O tested on HOP-62 NSCLC.
Resp: 5.03 µM

Req: Report GI50 for COc1ccc(-c2cnc(-c3ccc(OC)cc3)n2-c2cc(OC)c(OC)c(OC)c2)cc1 tested on HOP-62 NSCLC.
Resp: 21.4 µM

Req: Report GI50 for Cc1cc(-c2nc3sc(C)cn3c2/C=N/N=C(N)N)c(C)s1 tested on HOP-62 NSCLC.
Resp: 3.17 µM

Req: Report GI50 for CCOc1ccc(-c2nc3ccc(-c4nc5ccc(N6CCN(C)CC6)cc5[nH]4)cc3[nH]2)cc1 tested on HOP-62 NSCLC.
Resp: 0.456 µM

Req: Report GI50 for COc1cccc(/C=N\NC(=O)c2ccncc2)c1O tested on HOP-62 NSCLC.
Resp: 5.36 µM

Req: Report GI50 for COc1cc2c(/C=C3\C(=O)N(C)c4ccccc43)c[nH]c2cc1C tested on HOP-62 NSCLC.
Resp: 2.23 µM

----------
Exercise: state measured TGI for each of the molecules provided.
Tested on: OVCAR-4 ovarian
ASSAY OVERVIEW: NCI tumour cell line growth inhibition, 48 h

Req: Request the reported TGI associated with Brc1ccc(-c2[nH]c3ccccc3c2/C=N\Nc2ccc(-c3nc4ccccc4[nH]3)cc2)cc1
Resp: > 100 µM

Req: Request the reported TGI associated with CCC1C(NC(=O)OC)C(=O)N1[C@@H](C)c1ccccc1 (stereo not given in full)
Resp: > 100 µM

Req: Request the reported TGI associated with Cc1nnn(C)c1-c1cnc2c3ccc(C(C)(C)O)cc3n([C@H](c3ccccc3)C3CCOCC3)c2c1
Resp: > 100 µM

Req: Request the reported TGI associated with O=C(Nc1ccc(I)cc1F)c1cc(Br)ccc1O
Resp: > 23.1 µM

Req: Request the reported TGI associated with CC1(C)CN(CC(=O)O)CC(Cc2ccc(OCC(=O)O)cc2)N(CC(=O)O)CC(C)(C)SS1 (stereo not given)
Resp: > 100 µM

----------
System: NCI-H522 lung
ASSAY OVERVIEW: NCI tumour cell line growth inhibition, 48 h; in the data active = GI50 below about 0.43 µM; inactive = the rest
Bench note: report the call from class 1 = active, class 0 = inactive

Req: GET /call?item= c1cc[c]([Ge]([O]c2cccc3cccnc23)([c]2ccccc2)[c]2ccccc2)cc1 returns the recorded outcome of this test.
Resp: class 0

Req: GET /call?item= OCC1OC(N2C=C(c3nc4ccccc4s3)C3C=CC=CC32)C(O)C(O)C1O (stereo not given) returns the recorded outcome of this test.
Resp: class 0

Req: GET /call?item= Cc1ccc(/C(=N/NS(=O)(=O)c2cc(C)c(Cl)cc2Cl)Sc2cc(Cl)c(C)cc2S(N)(=O)=O)cc1 returns the recorded outcome of this test.
Resp: class 0

Req: GET /call?item= CCCCCCOC(=O)CC1=C(C)/C(=C/c2[nH]c(-c3ccc[nH]3)cc2OC)N=C1C returns the recorded outcome of this test.
Resp: class 1

Req: GET /call?item= O=S(O)O.O=S(O)O.[Co].[NH2-].[NH2-].[NH2-].[NH2-] returns the recorded outcome of this test.
Resp: class 0

Req: GET /call?item= CC(C)CCN(CCC(C)C)CC(=O)Nc1ccc(S(=O)(=O)c2ccc(NC(=O)CN(CCC(C)C)CCC(C)C)cc2)cc1 returns the recorded outcome of this test.
Resp: class 0

Req: GET /call?item= CC(=O)O[C@@H]1c2c(c3c(=O)c4cccc(O)c4c(=O)c=3c2=[N+]=[N-])[C@H](OC(C)=O)[C@@H](OC(C)=O)[C@]1(C)O returns the recorded outcome of this test.
Resp: class 1

Req: GET /call?item= COc1cc2c(cc1OC)[C@@H]1C(=O)c3ccc4c(c3O[C@@H]1CO2)C[C@H](C(C)C)O4 returns the recorded outcome of this test.
Resp: class 0

Req: GET /call?item= Cc1ccc(-c2cc(C(=O)Nc3ccc(S(=O)(=O)N4CCCCC4)cc3)[nH]n2)c(O)c1 returns the recorded outcome of this test.
Resp: class 0

Req: GET /call?item= CC(C)[C@@]12C[C@@H](OC(=O)C3CO3)[C@@](C)(O1)[C@@H]1CC[C@@H](C)[C@H]1[C@@H]2OC(=O)/C=C/c1ccccc1 (stereo not given in full) returns the recorded outcome of this test.
Resp: class 0

Req: GET /call?item= CCCN(CCC)c1ccc(/C=N/NC(=O)c2cccnc2)c(C)c1 returns the recorded outcome of this test.
Resp: class 0

Req: GET /call?item= Oc1ccc(N=Nc2ccc(Br)cc2)c(O)c1 returns the recorded outcome of this test.
Resp: class 0

Req: GET /call?item= Nc1nc(Sc2ccc([N+](=O)[O-])c3nonc23)c2ncn(C3OC(CO)C(O)C3O)c2n1 (stereo not given) returns the recorded outcome of this test.
Resp: class 0

Req: GET /call?item= CCN1/C(=C/C(C)=C/c2sc3ccc4ccccc4c3[n+]2CC)Sc2ccc3ccccc3c21 returns the recorded outcome of this test.
Resp: class 1

Req: GET /call?item= CCc1cc2c(c(OCC(F)(F)F)c(C(=O)NC3CCN(C(=O)CO)CC3)n2C)c(=O)n1CC(=O)c1ccccc1 returns the recorded outcome of this test.
Resp: class 0

Req: GET /call?item= ClCc1ccccc1Cn1cnc2nc(Cl)nc(Cl)c21 returns the recorded outcome of this test.
Resp: class 0

Req: GET /call?item= O=C1CN=C(c2ccc[nH]2)c2cc(Cl)ccc2N1 returns the recorded outcome of this test.
Resp: class 0

Req: GET /call?item= NC(=O)c1cn(C2CC(O)C(CO)O2)c2ncnc(N)c12 (stereo not given) returns the recorded outcome of this test.
Resp: class 0

Req: GET /call?item= CCOC(=O)c1c(NN2CCN(CC(F)(F)F)CC2)oc(/C=C2\C=Nc3ncccc32)c1O returns the recorded outcome of this test.
Resp: class 0

Req: GET /call?item= COc1cccc2c1C(=O)c1c(O)c3c(c(O)c1C2=O)C[C@](O)(C(=O)CO)C[C@H]3O[C@@H]1C[C@@H](NC(=O)CCCN(C)C2(c3ccc(F)cc3)CC3CCC2C3)[C@H](O)[C@@H](C)O1 (stereo not given in full) returns the recorded outcome of this test.
Resp: class 0
